// provenance: patent US5753671A

Molecular target: Histamine-1 Receptors on Hela-S3 Cells (Homo sapiens)
Construct: histamine-1 receptors on Hela-S3 cells (American Type Culture Collection); endogenous in cells; host or cells: HeLa S3 cells (American Type Culture Collection), intact cell suspension
Sequence (P35367 whole entry): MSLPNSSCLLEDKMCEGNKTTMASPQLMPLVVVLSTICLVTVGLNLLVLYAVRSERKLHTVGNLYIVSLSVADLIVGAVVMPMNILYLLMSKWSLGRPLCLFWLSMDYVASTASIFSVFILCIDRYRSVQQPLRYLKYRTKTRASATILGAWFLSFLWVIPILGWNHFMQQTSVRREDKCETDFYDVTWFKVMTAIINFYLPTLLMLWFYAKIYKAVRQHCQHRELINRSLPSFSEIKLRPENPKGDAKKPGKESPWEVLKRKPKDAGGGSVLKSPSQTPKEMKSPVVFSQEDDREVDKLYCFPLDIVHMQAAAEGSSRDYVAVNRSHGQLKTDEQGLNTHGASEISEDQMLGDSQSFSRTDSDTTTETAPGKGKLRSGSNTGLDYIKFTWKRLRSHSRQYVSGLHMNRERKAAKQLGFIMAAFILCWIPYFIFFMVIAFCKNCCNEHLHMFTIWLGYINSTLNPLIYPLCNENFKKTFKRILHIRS
Experiment: Inhibition of [^3 H]-Pyrilamine Binding to Histamine-1 Receptors on Hela-S3 Cells
Settings: 0.5 h, 1 μM test compound, 37° C., 30 minutes, read-out: % Specific Binding
activity at 1 µM strictly less than 50% = 1 (yes). Otherwise 0 (no).

Example results:
Cc1nc2cnccc2n1Cc1ccc(S(=O)(=O)N(C)[C@@H](CC(C)C)C(=O)OCCCN2CCN(C(c3ccccc3)c3ccccc3)CC2)cc1 = 1 (yes)
CCOC[C@H](CC(C)C)N(C/C=C/c1cccc(/C(=C/CN2CCCC2)c2ccc(C)cc2)n1)S(=O)(=O)c1ccc(Cn2c(C)nc3cnccc32)cc1 = 0 (no)

Threshold test, activity at 1 µM < 50%: Cc1ccc(/C(=C\CN2CCCC2)c2cccc(/C=C/COC(=O)[C@H](CC(C)C)N(C)S(=O)(=O)c3ccc(Cn4c(C)nc5cnccc54)cc3)n2)cc1
1 (yes)

Also Cc1nc2cnccc2n1Cc1ccc(S(=O)(=O)N(C)[C@@H](CC(C)C)C(=O)OC(CCCN2CCC(C(O)(c3ccccc3)c3ccccc3)CC2)c2ccc(C(C)(C)C)cc2)cc1 (stereo partly drawn) , if possible.
0 (no)

Also CCOC[C@H](CC(C)C)N(CCCN(C)CCC(c1ccc(Cl)cc1)c1ccccn1)S(=O)(=O)c1ccc(Cn2c(C)nc3cnccc32)cc1 (stereo partly drawn) , if possible.
1 (yes)

Also Cc1nc2cnccc2n1Cc1ccc(S(=O)(=O)N(C)[C@@H](CC(C)C)C(=O)N2CCC(=C3c4ccc(Cl)cc4CCc4cccnc43)CC2)cc1 , if possible.
0 (no)
